# inhibition listing for each entry below
# EXPERIMENTAL SYSTEM: 5-hydroxytryptamine receptor 1B (Homo sapiens) (UniProt P28222)
# Sequence (P28222 whole entry): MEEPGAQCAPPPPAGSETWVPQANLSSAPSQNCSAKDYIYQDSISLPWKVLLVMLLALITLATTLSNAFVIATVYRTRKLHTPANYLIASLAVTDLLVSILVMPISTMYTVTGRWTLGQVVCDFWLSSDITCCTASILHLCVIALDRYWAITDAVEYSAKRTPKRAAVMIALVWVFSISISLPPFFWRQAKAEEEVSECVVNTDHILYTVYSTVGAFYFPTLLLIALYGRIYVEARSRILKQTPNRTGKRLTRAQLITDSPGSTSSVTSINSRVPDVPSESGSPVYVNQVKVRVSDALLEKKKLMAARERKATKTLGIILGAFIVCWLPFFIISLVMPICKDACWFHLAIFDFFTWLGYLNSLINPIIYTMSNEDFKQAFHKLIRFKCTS
# PROTOCOL NOTES: Inhibition of 5-HT1B receptor (unknown origin) at 10 uM relative to control
Hey, just the number and the unit after it is fine.

[[record]]
sample_smiles = "Cl.NCc1ccc(OCc2ccc(Cl)cc2)cc1"
experimental_system = "5-hydroxytryptamine receptor 1B (Homo sapiens) (UniProt P28222)"
data_value = "-6.7%"

[[record]]
sample_smiles = "Cl.NCc1ccc(OCc2ccccc2OC(F)(F)F)cc1"
experimental_system = "5-hydroxytryptamine receptor 1B (Homo sapiens) (UniProt P28222)"
data_value = "-8.8%"

[[record]]
sample_smiles = "Cl.NCc1ccc(OCc2ccc(F)cc2)cc1"
experimental_system = "5-hydroxytryptamine receptor 1B (Homo sapiens) (UniProt P28222)"
data_value = "-2.5%"


IN: Entry Cl.NCc1ccc(OCc2ccccc2F)cc1 needs its inhibition filled in; supply it.
OUT: -7.7%
